test system: ACHN; test: NCI tumour cell line growth inhibition, 48 h
Active and inactive are the calls of the source. Rule as the data show it: active = GI50 up to about 1.1 µM and inactive = higher. Where a SMILES comes first, the peptide text is derived from it. [ ]: non-standard residue; d: D form. The star is where a group is joined. ξ: configuration not given here. NMeF = CN[CH](Cc1ccccc1)C(=O)O; ξNMe2Val = CC(C)C(C(=O)*)N(C)C; NMeV = CN[CH](C(=O)O)C(C)C; OtBu = CC(C)(C)O*
measurement-label: GI50

O=C(/C=C/c1ccc2c(c1)OCO2)CC(=O)C(=O)c1c[nH]c2ccccc12
44.2 µM (inactive)

Note down GI50 recorded for CN(C)C(=O)Nc1cc2c3c(c1)CCCN3CCC2
> 10 µM (inactive)

Please report the measured GI50 for CC(C)C(C(=O)N(C)C(Cc1ccccc1)C(=O)N(C)C(C(=O)N(C)C(C(=O)N1CCCC1C(=O)OC(C)(C)C)C(C)C)C(C)C)N(C)C (centres undefined) (ξNMe2Val-[NMeF][NMeV][NMeV]P-OtBu; configuration not given here)
65 µM (inactive)

Provide only the value of recorded GI50 for CC1CCC(=O)C(C(=O)CC2CC(=O)N(C)C(=O)C2)C1 (centres undefined)
> 100 µM (inactive)

---

Items are presented alongside their recorded GI50.
system: T47D; assay: NCI tumour cell line growth inhibition, 48 h
Activity calls are given as the source filed them. Cut-off read from the data, not from the text of the source: active = GI50 up to about 1.1 µM and inactive = higher.

CC(=O)SC(C[N+](=O)[O-])c1ccccc1 (stereo not given)
10.4 µM (inactive)
CC12CCC(CC1(Cl)Cl)C2 (stereo not given)
> 100 µM (inactive)
Cc1ccc2nc(/C=N/c3ccccc3Cl)cc(C)c2c1
22.4 µM (inactive)
COc1cccc2c1CCc1c(-c3ccc(F)cc3)cc(-c3ccc4ccccc4n3)nc1-2
> 100 µM (inactive)
Cc1ncc([N+](=O)[O-])n1CCNCCCCn1ccnc1[N+](=O)[O-]
> 100 µM (inactive)
COc1cc(C2c3cc4c(cc3OC(NNC(N)=O)C2C)OCO4)cc(OC)c1O (stereo not given)
> 100 µM (inactive)
COc1ccc(-c2cc(-c3ccccc3)nc(/N=C\c3ccccc3)n2)c(O)c1
5.62 µM (inactive)
CCOC(=O)NC(Nc1ncn(C(NC(=O)OCC)(C(F)(F)F)C(F)(F)F)n1)(C(F)(F)F)C(F)(F)F
49 µM (inactive)

Read off the recorded GI50 for CC1(C(=O)O)CCC(C(=O)O)C(C)(C)O1 (stereo not given)
> 100 µM (inactive)

State its GI50 for this compound: CCCCCCCCCCC(O)[C@H]1CCC(C2CC[C@H]([C@H](O)CCCCCCCCCCC(O)CC3=CC(C)OC3=O)O2)O1 (stereo not given in full)
2.23 µM (inactive)

---

system: KM12; experiment: NCI tumour cell line growth inhibition, 48 h
Activity calls are given as the source filed them. No stated cut-off is given here; in the data, active = GI50 up to about 1.1 µM and inactive = higher.
measurement-label: GI50

Example results:
COc1ccc(OC)c2c1C[C@@H]1C(C#N)N3[C@H](Cc4c(OC)ccc(OC)c4[C@@H]3C)C(=O)N1[C@H]2C (some centres undefined)
2.77 µM (inactive)
COC(=O)C(=O)C(C(=O)C(N)=O)c1nc2ccc(C(=O)c3ccccc3)cc2nc1O (centres undefined)
46.9 µM (inactive)
COc1ccc(C2=NN=C3C(c4ccccc4)=Nc4ccccc4N3C2)cc1
21.4 µM (inactive)
O=C1c2ccccc2C2C1N2C(=O)C(F)(F)F (centres undefined)
> 100 µM (inactive)

// moving on: another record for GI50
Please give the documented GI50 of CC1=C(c2ccccc2)CON(c2ccccc2)C1
22.7 µM (inactive)

Every entry's value here was drawn from ChEMBL document CHEMBL1201862.
